Molecular target: T1, hnRNPLL RRM1 WT (Mus musculus, UniProt Q921F4 109-213)
T1 sequence: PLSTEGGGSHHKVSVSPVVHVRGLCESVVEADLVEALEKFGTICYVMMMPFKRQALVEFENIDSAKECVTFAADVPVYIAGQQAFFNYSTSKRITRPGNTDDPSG
Experiment: NMR titration
Measured quantity: Kd (nM)
I only need the number, in nM, no unit after it.

query: Would you mind telling me what Kd value was observed for CCUUACCUGCACGCA (ssRNA) [Ptprc exon 6 ARS 15-mer WT] ?
result: 1500
